- experimental system: Glycogen synthase kinase-3 alpha (Homo sapiens)
- test: blockers of GSK3A enzyme activity – biochemical, luminescence, cell-free homogeneous, HTS, primary screen (AID 2650);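 further: GST-tagged GSK-3 alpha with peptide substrate and 25 µM ATP; 0% = DMSO neutral wells and 100% = GW8510 positive control wells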
- settings: GSK-3 alpha kinase, ADP-Glo luminescence, 60 min; at 10 µM
Among all 320,000 compounds or so, about 320 (0.1%) were called active.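 How the source made its calls: active means more than half of replicates show inhibition above 20%; inconclusive means some but at most half of replicates above 20% inhibition; inactive means no replicate shows inhibition above 20%.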 This is one part of a sample in which actives are shown more often than they occur.
Permitted responses: 1 (active), -1 (inactive)

Take a look at these entries with their results.
O=C(c1ccncc1)N1CCN(S(=O)(=O)c2cc(C(F)(F)F)cc(C(F)(F)F)c2)CC1: -1
CC(C)c1ccc(/C=C2\NC(=O)NC2=O)cc1: -1
Cc1noc(COc2ccccc2OCc2onc(C)c2Cl)c1Cl: -1
CCCN1C2=C(C(=O)CCC2)C(c2ccc(O)c(Br)c2)C2=C1CCCC2=O: -1
O=C(CN1CCC(O)(c2cccc(C(F)(F)F)c2)CC1)NCCc1ccccc1: -1
CCCNC(=S)N1CCC(NC(=O)C23CC4CC(CC(C4)C2)C3)CC1: -1
CCNc1nc(N)nc(Oc2ccc(OCC)nn2)n1: -1
Cc1c(Cl)cccc1NC(=O)NCc1ccc(C)n1C: -1

Recorded test outcome, item CC(C)n1cnc2c(Nc3cccc(Cl)c3)nc(N(CCO)CCCO)nc21
-1

# lookup: test call for N#Cc1ccccc1CN1C(=O)S/C(=C/c2cccn2-c2cccc(C(=O)O)c2)C1=O
-1

State the result this test recorded for CCN(CC)N=Nc1cccc(NC(C)=O)c1 .
-1

Lab log entry: OCCCNc1nccc(-c2cc(Nc3cccc(Cl)c3)ncn2)n1 — outcome as called in the assay?
1
